We begin with a simple list: items and their reported inhibition at 50 µg/mL.
- system: acetylcholinesterase enzyme from electric eel (Electrophorus electricus, UniProt O42275)
- Construct: purchased Sigma-Aldrich CAS Number 9000-81-1 (catalogue number not given)
- Sequence (O42275 24-633): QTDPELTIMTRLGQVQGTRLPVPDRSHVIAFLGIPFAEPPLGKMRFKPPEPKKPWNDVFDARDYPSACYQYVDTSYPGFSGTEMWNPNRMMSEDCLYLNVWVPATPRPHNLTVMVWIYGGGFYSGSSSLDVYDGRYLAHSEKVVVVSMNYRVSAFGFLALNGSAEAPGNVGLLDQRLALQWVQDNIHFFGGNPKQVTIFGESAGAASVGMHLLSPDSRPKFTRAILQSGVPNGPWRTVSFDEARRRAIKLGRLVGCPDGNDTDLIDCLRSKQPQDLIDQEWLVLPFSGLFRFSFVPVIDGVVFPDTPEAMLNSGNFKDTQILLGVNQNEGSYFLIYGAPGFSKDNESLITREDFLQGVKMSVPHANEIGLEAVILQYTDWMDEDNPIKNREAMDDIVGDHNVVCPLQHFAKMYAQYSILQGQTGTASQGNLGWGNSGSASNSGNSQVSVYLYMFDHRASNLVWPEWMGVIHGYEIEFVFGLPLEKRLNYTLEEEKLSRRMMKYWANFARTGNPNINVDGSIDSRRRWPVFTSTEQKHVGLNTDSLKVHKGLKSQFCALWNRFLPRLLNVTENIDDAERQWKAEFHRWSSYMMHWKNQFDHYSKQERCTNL
- assay_notes: Acetylcholinesterase (AChE) inhibitory assay (DTNB/acetylthiocholine iodide, absorbance at 412 nm)
- Format: biochemical
- conditions: Conc 50 ug/ml
attribute_measured: inhibition at 50 µg/mL (%)

compound="O=C(c1ccc(C(F)(F)F)cc1)C1C(c2cc3ccccc3s2)C2CSCN2[C@@]12C(=O)Nc1ccc(Cl)cc12 (stereo partly shown)" system="acetylcholinesterase enzyme from electric eel (Electrophorus electricus, UniProt O42275)" measured=52.4
compound="O=C(c1ccc(Cl)cc1)C1C(c2cc3ccccc3s2)C2CSCN2[C@@]12C(=O)Nc1ccccc12 (stereo partly shown)" system="acetylcholinesterase enzyme from electric eel (Electrophorus electricus, UniProt O42275)" measured=58.6
compound="O=C(c1ccccc1)C1C(c2cc3ccccc3s2)C2CSCN2[C@@]12C(=O)Nc1ccccc12 (stereo partly shown)" system="acetylcholinesterase enzyme from electric eel (Electrophorus electricus, UniProt O42275)" measured=51.5
compound="O=C(c1ccccc1)C1C(c2cc3ccccc3s2)C2C3CCCCC3CN2[C@@]12C(=O)Nc1ccc(Cl)cc12 (stereo partly shown)" system="acetylcholinesterase enzyme from electric eel (Electrophorus electricus, UniProt O42275)" measured=70.3
compound="O=C(c1ccc(F)cc1)C1C(c2cc3ccccc3s2)C2C3CCCCC3CN2[C@@]12C(=O)Nc1ccc(Cl)cc12 (stereo partly shown)" system="acetylcholinesterase enzyme from electric eel (Electrophorus electricus, UniProt O42275)" measured=43
compound="O=C(c1ccc(C(F)(F)F)cc1)C1C(c2cc3ccccc3s2)C2CSCN2[C@@]12C(=O)Nc1ccccc12 (stereo partly shown)" system="acetylcholinesterase enzyme from electric eel (Electrophorus electricus, UniProt O42275)" measured=50.7
compound="O=C(c1ccc(Br)cc1)C1C(c2cc3ccccc3s2)C2C3CCCCC3CN2[C@@]12C(=O)Nc1ccc(Cl)cc12 (stereo partly shown)" system="acetylcholinesterase enzyme from electric eel (Electrophorus electricus, UniProt O42275)" measured=61
